Assay: Effect of particle size on colonic exposure levels: single rectal dose of niclosamide suspension, blood and rectal mucosa samples
Conditions: rabbit, colon tissue, other: rectal, 22.5 mg
Recorded Metric: concentration at 1 hour (ng/mL)
Give a bare numeral; the unit ng/mL is implied.

Prompt: Need concentration at 1 hour of O=C(Nc1ccc([N+](=O)[O-])cc1Cl)c1cc(Cl)ccc1O [milled niclosamide] , thanks.
Completion: 6090

FYI, the data here is from patent US20210114973A1.
